koff by entry:
Target: T1, tail-chimeric peptide IhfA3-IhfB2NTHI (nontypeable Haemophilus influenzae …)
T1 construct: also called IHF(NTHI) tail chimeric peptide; IHFNTHI tail chimeric peptide
T1 peptide: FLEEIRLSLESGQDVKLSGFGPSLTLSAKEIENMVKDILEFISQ
Experiment: SPR Biacore 3000, peptide immobilized, HuMab as analyte
Give the value in s⁻¹ but do not write s⁻¹ after it.

Data request: Quick one: koff for humanized anti-tail monoclonal antibody, heavy chain SEQ ID NO: 4 and light chain SEQ ID NO: 12 (antibody, V domains shown, also called H10213 (11E7.C7 Humanized HC1) + L10215 (11E7.C7 Humanized LC3)) VH: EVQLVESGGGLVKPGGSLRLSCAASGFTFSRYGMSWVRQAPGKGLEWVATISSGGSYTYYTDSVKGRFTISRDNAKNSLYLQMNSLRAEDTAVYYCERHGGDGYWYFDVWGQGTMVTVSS VL: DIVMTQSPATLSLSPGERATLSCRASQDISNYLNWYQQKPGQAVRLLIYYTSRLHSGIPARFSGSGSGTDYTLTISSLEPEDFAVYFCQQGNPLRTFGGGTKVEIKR ?
Data returned: 0.00056

Data request: Quick one: koff for humanized anti-tail monoclonal antibody, heavy chain SEQ ID NO: 5 and light chain SEQ ID NO: 12 (antibody, V domains shown, also called H10214 (11E7.C7 Humanized HC2) + L10215 (11E7.C7 Humanized LC3)) VH: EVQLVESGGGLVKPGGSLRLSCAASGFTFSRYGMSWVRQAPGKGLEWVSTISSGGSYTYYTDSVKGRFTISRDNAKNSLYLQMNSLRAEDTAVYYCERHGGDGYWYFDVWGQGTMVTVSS VL: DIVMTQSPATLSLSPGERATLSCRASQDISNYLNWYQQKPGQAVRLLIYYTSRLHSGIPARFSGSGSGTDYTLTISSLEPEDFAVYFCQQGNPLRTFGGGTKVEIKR ?
Data returned: 0.00077

Data request: Quick one: koff for humanized anti-tail monoclonal antibody, heavy chain SEQ ID NO: 5 and light chain SEQ ID NO: 10 (antibody, V domains shown, also called H10214 (11E7.C7 Humanized HC2) + L10213 (11E7.C7 Humanized LC1)) VH: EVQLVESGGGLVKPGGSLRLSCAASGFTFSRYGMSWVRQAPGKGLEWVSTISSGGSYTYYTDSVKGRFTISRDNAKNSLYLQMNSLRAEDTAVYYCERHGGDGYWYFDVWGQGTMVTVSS VL: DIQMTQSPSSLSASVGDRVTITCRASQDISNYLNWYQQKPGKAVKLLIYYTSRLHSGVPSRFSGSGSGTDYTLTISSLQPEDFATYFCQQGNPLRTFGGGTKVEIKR ?
Data returned: 0.00082

Data request: Quick one: koff for humanized anti-tail monoclonal antibody, heavy chain SEQ ID NO: 6 and light chain SEQ ID NO: 10 (antibody, V domains shown, also called H10215 (11E7.C7 Humanized HC3) + L10213 (11E7.C7 Humanized LC1)) VH: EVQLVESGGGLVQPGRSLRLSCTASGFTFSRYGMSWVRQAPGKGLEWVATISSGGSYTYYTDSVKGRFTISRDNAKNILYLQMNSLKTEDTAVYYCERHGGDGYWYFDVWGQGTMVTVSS VL: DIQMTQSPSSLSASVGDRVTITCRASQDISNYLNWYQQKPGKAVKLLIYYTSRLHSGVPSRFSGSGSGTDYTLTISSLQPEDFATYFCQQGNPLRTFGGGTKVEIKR ?
Data returned: 0.00046

Data request: Quick one: koff for humanized anti-tail monoclonal antibody, heavy chain SEQ ID NO: 4 and light chain SEQ ID NO: 11 (antibody, V domains shown, also called H10213 (11E7.C7 Humanized HC1) + L10214 (11E7.C7 Humanized LC2)) VH: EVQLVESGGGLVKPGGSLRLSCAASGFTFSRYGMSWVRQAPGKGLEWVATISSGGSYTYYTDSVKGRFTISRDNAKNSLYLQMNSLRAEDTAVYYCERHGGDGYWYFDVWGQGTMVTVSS VL: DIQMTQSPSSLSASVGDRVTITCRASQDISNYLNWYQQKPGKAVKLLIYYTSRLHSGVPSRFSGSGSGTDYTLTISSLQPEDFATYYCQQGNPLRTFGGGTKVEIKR ?
Data returned: 0.00068

Data request: Quick one: koff for humanized anti-tail monoclonal antibody, heavy chain SEQ ID NO: 6 and light chain SEQ ID NO: 11 (antibody, V domains shown, also called H10215 (11E7.C7 Humanized HC3) + L10214 (11E7.C7 Humanized LC2)) VH: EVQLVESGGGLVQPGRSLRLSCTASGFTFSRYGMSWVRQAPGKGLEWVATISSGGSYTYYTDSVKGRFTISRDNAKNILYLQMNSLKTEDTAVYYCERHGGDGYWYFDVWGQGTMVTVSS VL: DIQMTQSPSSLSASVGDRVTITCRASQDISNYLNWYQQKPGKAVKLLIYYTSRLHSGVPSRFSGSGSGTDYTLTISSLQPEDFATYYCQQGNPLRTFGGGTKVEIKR ?
Data returned: 0.00016

Data request: Quick one: koff for humanized anti-tail monoclonal antibody, heavy chain SEQ ID NO: 4 and light chain SEQ ID NO: 10 (antibody, V domains shown, also called HuTailMab; TP-21958) VH: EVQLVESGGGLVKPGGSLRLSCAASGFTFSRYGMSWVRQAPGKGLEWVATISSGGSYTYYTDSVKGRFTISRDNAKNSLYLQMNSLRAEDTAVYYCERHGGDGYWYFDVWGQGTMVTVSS VL: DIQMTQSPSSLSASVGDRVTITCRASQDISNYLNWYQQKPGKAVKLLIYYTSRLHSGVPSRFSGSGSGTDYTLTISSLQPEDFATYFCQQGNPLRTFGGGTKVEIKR ?
Data returned: 0.00064

Data request: Quick one: koff for humanized anti-tail monoclonal antibody, heavy chain SEQ ID NO: 6 and light chain SEQ ID NO: 12 (antibody, V domains shown, also called H10215 (11E7.C7 Humanized HC3) + L10215 (11E7.C7 Humanized LC3)) VH: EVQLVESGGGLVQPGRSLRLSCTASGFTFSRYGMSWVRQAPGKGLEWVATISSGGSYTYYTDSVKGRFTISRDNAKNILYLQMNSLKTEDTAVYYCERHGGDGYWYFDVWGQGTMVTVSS VL: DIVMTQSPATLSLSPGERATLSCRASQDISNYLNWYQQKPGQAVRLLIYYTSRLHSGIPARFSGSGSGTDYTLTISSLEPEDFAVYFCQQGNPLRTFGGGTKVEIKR ?
Data returned: 0.0006

Data request: Quick one: koff for humanized anti-tail monoclonal antibody, heavy chain SEQ ID NO: 5 and light chain SEQ ID NO: 11 (antibody, V domains shown, also called H10214 (11E7.C7 Humanized HC2) + L10214 (11E7.C7 Humanized LC2)) VH: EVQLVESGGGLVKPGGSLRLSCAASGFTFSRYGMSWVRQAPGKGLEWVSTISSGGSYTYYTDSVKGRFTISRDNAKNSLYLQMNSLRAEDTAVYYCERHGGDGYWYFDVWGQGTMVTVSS VL: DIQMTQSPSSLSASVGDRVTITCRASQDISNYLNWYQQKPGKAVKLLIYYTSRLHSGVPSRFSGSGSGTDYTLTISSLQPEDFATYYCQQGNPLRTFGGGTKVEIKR ?
Data returned: 0.00076
